# Test system: wt-Bcr-Abl Ba/F3
# assay_overview: Proliferation inhibitory activity, wt-Bcr-Abl Ba/F3
# Format: cell-based
# assay_context: Mus musculus, BaF3; wt-Bcr-Abl Ba/F3 cell line
Task for the reader: assign each of the following compounds its reported GI50.

# input Provide one value: measured GI50 of Cc1ccc(NC(=O)c2cc(N3CCOCC3)cc(C(F)(F)F)c2)cc1-c1ccc2ccn(-c3cc(N)ncn3)c2c1 [Compound No. 3]
# output > 3000 nM

# input Please give the documented GI50 of Cc1ccc(NC(=O)c2cc(N3CCOCC3)cc(C(F)(F)F)c2)cc1-c1ccc2ccn(-c3ncnc4[nH]ccc34)c2c1 [Compound No. 13]
# output 300 to 3000 nM

# input For the compound Cc1cn(-c2cc(C(=O)Nc3ccc(C)c(-c4ccc5ccn(-c6cc(N)ncn6)c5c4)c3)cc(C(F)(F)F)c2)cn1 [Compound No. 1] , give its measured GI50 value.
# output 300 to 3000 nM

# input Using known records, supply GI50 for COc1ccccc1NC(=O)Nc1ccc(C)c(-c2ccc3ccn(-c4cc(N)ncn4)c3c2)c1 [Compound No. 9]
# output > 3000 nM

# input For the compound Cc1ccc(NC(=O)c2ccc(N3CCN(C)CC3)c(C(F)(F)F)c2)cc1-c1ccc2ccn(-c3cc(N)ncn3)c2c1 [Compound No. 5] , report GI50.
# output 300 to 3000 nM

# input Quick one: give measured GI50 for Cc1cn(-c2cc(C(=O)Nc3ccc(C)c(-c4ccc5ccn(-c6ncnc7[nH]ccc67)c5c4)c3)cc(C(F)(F)F)c2)cn1 [Compound No. 11]
# output < 300 nM
